Provide the recorded EC50 for the entries that follow.
Target: CXCR7 (Homo sapiens, UniProt P25106)
Construct: host or cells: CHO (PathHunter CHO-CXCR7 β-arrestin cells)
Sequence (P25106 whole entry): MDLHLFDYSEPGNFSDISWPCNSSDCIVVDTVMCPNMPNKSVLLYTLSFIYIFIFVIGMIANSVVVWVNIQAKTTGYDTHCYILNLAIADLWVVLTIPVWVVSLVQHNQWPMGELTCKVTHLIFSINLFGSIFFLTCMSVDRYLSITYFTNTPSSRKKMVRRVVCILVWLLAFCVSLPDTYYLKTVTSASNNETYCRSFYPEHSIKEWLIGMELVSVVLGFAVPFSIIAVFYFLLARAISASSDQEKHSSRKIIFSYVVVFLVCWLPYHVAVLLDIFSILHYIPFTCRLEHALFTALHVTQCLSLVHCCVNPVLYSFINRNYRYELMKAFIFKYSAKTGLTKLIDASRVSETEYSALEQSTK
Test: CXCR7 β-arrestin recruitment assay (PathHunter CHO-CXCR7, agonistic assay)
Type: cell-based
Conditions: CHO CXCR7 β-arrestin cells, agonistic assay, 90 min at 37° C., chemiluminescence; read-out: β-Arrestin EC50
Square brackets hold non-standard residues; d marks the D form. Peptide text beside a SMILES is read from it. Tic = O=C(O)[C@@H]1Cc2ccccc2CN1; Aze = O=C(O)[C@@H]1CCN1
# output: bare number, implied unit nM

// sample CC[C@H](C)[C@@H]1NC(=O)[C@@H](CCCNC(=N)N)NC(=O)[C@H](Cc2c[nH]c3ccccc23)NC(=O)[C@@H]2CCN2C(=O)[C@H]2CCCN2C(=O)[C@H](CCCNC(=N)N)NC1=O [compound 50, cyclo(-Trp-^DArg-Ile-Arg-^DPro-Azt-)] (cyclo([Aze]W[dR]IR[dP])) , its EC50 was 47.7

// sample N=C(N)NCCC[C@@H]1NC(=O)[C@H](Cc2c[nH]cn2)NC(=O)[C@@H](Cc2c[nH]c3ccccc23)NC(=O)[C@H](Cc2c[nH]cn2)NC(=O)[C@@H]2Cc3ccccc3CN2C(=O)[C@H]2CCCN2C1=O [compound 31, cyclo(-His-^DTrp-His-Arg-^DPro-Tic-)] (cyclo(HR[dP][Tic]H[dW])) , its EC50 was 226

All figures here come from patent US8629112B2.
